Here the recorded pKd is given for each entry.
# study.target: T1, PDZD2_2, O15018
# T1 sequence (O15018 329-429, limits assumed, looked up): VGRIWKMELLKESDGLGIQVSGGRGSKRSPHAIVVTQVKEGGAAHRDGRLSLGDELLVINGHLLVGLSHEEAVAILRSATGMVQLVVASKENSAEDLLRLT
# measurement.notes: holdup assay
# Set-up: key: below the threshold = too weak to quantify, mostly under pKd 3.1 to 4
# condition.details: plain residues with an end cap or a label only (N-terminal biotin on a linker: ttds)

DPRNTQTSQI [ABRAXAS2, Q15018] = 4.44

// fetch pKd given entry LDSQIQETSI [MAP4, P27816] 4.36

Please supply the value of reported pKd for the item LCALPKVTTV [AGMAT, Q9BSE5] 4.44

Complete the entry with pKd for SEKHFRETEV [HTLV1-TAX1, P03409] 4.44
